assay: Biodistribution in Sprague-Dawley rat cerebellum pretreated with unlabeled compound at 5 mg/kg, ip administered 30 mins before labeled compound treatment at 37 MBq, iv measured 15 mins post injection (reference value: 0.26 %ID/g); type: ADME, organism-based; parameters: dose 5 mg/kg; conditions: read-out: Drug uptake
assay-endpoint: tissue uptake at 0.25 h (%ID/g)
Give a bare numeral; the unit %ID/g is implied.

Request: tissue uptake at 0.25 h for [11CH3]Oc1ncccc1-c1cccc2c(N)c3c(nc12)CN(C1CCC1)C3=O ?
Response: 0.12

###

experiment: Biodistribution in Sprague-Dawley rat hippocampus pretreated with unlabeled compound at 10 mg/kg, ip administered 30 mins before labeled compound treatment at 37 MBq, iv measured 15 mins post injection (reference value: 0.22 +/- 0.22 %ID/g); assay type: ADME, organism-based; design: dose 10 mg/kg; settings: read-out: Drug uptake
assay-endpoint: tissue uptake at 0.25 h
Mention the unit after the number when you answer.

Request: Fill in the blank: the reported tissue uptake at 0.25 h of [11CH3]Oc1ncccc1-c1cccc2c(N)c3c(nc12)CN(C1CCC1)C3=O is ____.
Response: 0.08 %ID/g

###

experiment: Biodistribution in Sprague-Dawley rat hippocampus pretreated with unlabeled compound at 5 mg/kg, ip administered 30 mins before labeled compound treatment at 37 MBq, iv measured 15 mins post injection (reference value: 0.22 +/- 0.22 %ID/g); assay type: ADME, organism-based; parameters: dose 5 mg/kg; conditions: read-out: Drug uptake
assay-endpoint: tissue uptake at 0.25 h (%ID/g)
Write the answer as a number in %ID/g, unit excluded.

Request: For the compound [11CH3]Oc1ncccc1-c1cccc2c(N)c3c(nc12)CN(C1CCC1)C3=O , what tissue uptake at 0.25 h is on record?
Response: 0.11

Values compiled from ChEMBL document CHEMBL2057083.
